Source of measurements: patent US9670214B2

Target: Bcr-abl T315I (Ba/F3.p210^T315I cells) (Homo sapiens, UniProt P00519, T315I, cells depend on it)
Assay: Proliferation assay (MTT), T315I mutant Bcr-abl expressing Ba/F3 cells
Conditions: 48 h, drug concentrations 0.005-10 μM
Measured Endpoint: IC50 (µM)
Just the number in µM, nothing appended.

[[record]]
structure_as_smiles = "CCNNC(=O)c1ccc2c(Nc3ccc(OC(F)(F)F)cc3)ncnc2c1"
value_measured = 6.3

[[record]]
structure_as_smiles = "Cc1c(Nc2ccc(OC(F)(F)F)cc2)ncnc1-c1ccc(C(=O)NCCO)cc1"
value_measured = 4.67


Dear colleague, I am looking for the recorded IC50 of the following compound: O=C(c1cc2c(Nc3ccc(OC(F)(F)F)cc3)ncnc2s1)N1CCC[C@H]1CO
1.21

Now the same for Cc1c(Nc2ccc(OC(F)(F)F)cc2)ncnc1-c1ccc(C(=O)NCCN2CCOCC2)cc1
0.81

Now the same for CN1CCN(C(=O)c2cc3c(Nc4ccc(OC(F)(F)F)cc4)ncnc3s2)CC1
1.25

###

Biological target: Bcr-abl T315I (Ba/F3.p210^T315I cells) (Homo sapiens, UniProt P00519, T315I, cells depend on it)
Assay: Proliferation assay (MTT), T315I mutant Bcr-abl expressing Ba/F3 cells
Conditions: 48 h, drug concentrations 0.005-10 μM
pIC50: −log10 of the molar value.
Measured Endpoint: pIC50

Worked cases, pIC50 given:
[[record]]
compound = "CCN1CCCC1NC(=O)c1cc2c(Nc3ccc(OC(F)(F)F)cc3)ncnc2n1C (stereo not shown)"
value_measured = 5.07

[[record]]
compound = "Cc1nn(C)c(C)c1-c1cc(Nc2ccc(OC(F)(F)F)cc2)ncn1"
value_measured = "< 5.00"

[[record]]
compound = "COc1ccc(C(=O)Nc2ccc(-c3cc(Nc4ccc(OC(F)(F)F)cc4)ncn3)cc2)cc1"
value_measured = "< 5.00"

[[record]]
compound = "Cn1c(CO)cc2c(Nc3ccc(OC(F)(F)F)cc3)ncnc21"
value_measured = "< 5.00"

[[record]]
compound = "O=C(NCCO)c1cc2c(Nc3ccc(OC(F)(F)F)cc3)ncnc2s1"
value_measured = "< 5.00"

[[record]]
compound = "Cc1c(Nc2ccc(OC(F)(F)F)cc2)ncnc1-c1cccc(C(N)=O)c1"
value_measured = "< 5.00"

[[record]]
compound = "O=Cc1cc(-c2cc(Nc3ccc(OC(F)(F)F)cc3)ncn2)co1"
value_measured = 5.42

[[record]]
compound = "FC(F)(F)Oc1ccc(Nc2cc(-c3cccc4sccc34)ncn2)cc1"
value_measured = 5.43

[[record]]
compound = "O=c1cc(-c2cc(Nc3ccc(OC(F)(F)F)cc3)ncn2)cc[nH]1"
value_measured = "< 5.00"


Continue with the compound presented below.
Dear colleague, I am looking for the recorded pIC50 of the following compound: Cc1ccc(S(=O)(=O)Nc2ccc(-c3cc(Nc4ccc(OC(F)(F)F)cc4)ncn3)cc2)cc1
< 5.00

###

Listed here are molecules together with their documented IC50.
Target: Bcr-abl T315I (Ba/F3.p210^T315I cells) (Homo sapiens, UniProt P00519, T315I, cells depend on it)
Test: Proliferation assay (MTT), T315I mutant Bcr-abl expressing Ba/F3 cells
Settings: 48 h, drug concentrations 0.005-10 μM
Just the number in µM, nothing appended.

Worked cases, IC50 given:
[[record]]
molecule = "CCCC(C)S(=O)(=O)Nc1ccc(-c2cc(Nc3ccc(OC(F)(F)F)cc3)ncn2)cc1 (stereo not drawn)"
measured_endpoint = "IC50"
value_measured = 1.66

[[record]]
molecule = "FC(F)(F)Oc1ccc(Nc2cc(-c3cc(Nc4ccc(OC(F)(F)F)cc4)ncn3)ncn2)cc1"
measured_endpoint = "IC50"
value_measured = 7


Dear colleague, I am looking for the recorded IC50 of the following molecule: FC(F)(F)Oc1ccc(Nc2cc(-c3cccc4c3oc3ccccc34)ncn2)cc1
4.6

Now the same for FC(F)(F)Oc1ccc(Nc2cc(-c3cnn(Cc4ccncc4)c3)ncn2)cc1
4

Now the same for CCN(CC)C(=O)c1ccc2c(Nc3ccc(OC(F)(F)F)cc3)ncnc2c1
3.17
